experiment: Phase 1 plasma pharmacokinetics, multiple-ascending dose cohorts; type: in vivo, human; conditions: Day 14, 5 mg qd × 14 Days, n = 6
Reported Metric: CLss/F, mean ± SD (L/h)
Lab book: enter the figure in L/h, no units written.

If you can, please state the reported CLss/F, mean ± SD value of CCc1nc(-c2ccc3c(c2)CC[C@H]3NC(=O)c2cnn(C)c2)no1 [aficamten] .
3.9
